# System: HepG2 cells
# test-description: Test Example 2: inhibition of apolipoprotein B secretion from HepG2 cells, ELISA (also used for metabolites in Test Example 8)
# Assay type: cell-based
# measurement-setup: Homo sapiens, 24 hours, apo B in supernatant by ELISA, read-out: Test Example 2 Inhibition of apo B secretion IC50
pIC50: −log10 of the molar value.
value-kind: pIC50

- CCOC(=O)C(COC(=O)Cc1ccc(NC(=O)c2ccccc2-c2ccc(C(F)(F)F)cc2)c(C(=O)N(C)C)c1)(C(=O)OCC)C(=O)OCC: 7.31
- CCCNC(=O)C(COC(=O)Cc1ccc(NC(=O)c2ccccc2-c2ccc(C(F)(F)F)cc2)c(C(=O)N(C)C)c1)(C(=O)NCCC)c1ccccc1: 8.89
- CCOC(=O)C(COC(=O)Cc1ccc(NC(=O)c2ccc(C)cc2-c2ccc(C(F)(F)F)cc2)c(C(=O)N(C)C)c1)(C(=O)OCC)c1ccccc1: 9.44
- CCOC(=O)C(COC(=O)Cn1c(C)nc2c(NC(=O)c3ccccc3-c3ccc(C(F)(F)F)cc3)cccc21)(C(=O)OCC)c1ccccc1: 6.35
- CCOC(=O)C(COC(=O)Cc1cc(Br)c(NC(=O)c2ccccc2-c2ccc(C(F)(F)F)cc2)c(C(=O)N(C)C)c1)(C(=O)OCC)c1ccccn1: 9.00
- CC(C)CNC(=O)C(COC(=O)Cc1ccc(NC(=O)c2ccccc2-c2ccc(C(F)(F)F)cc2)cc1)(C(=O)NCC(C)C)c1ccccc1: 8.03
